Parameter: viability, T/C. Scope: all listed entries.
- Test system: LG0703-F948-PDC complex spheroid viability;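 also: spheroids exposed to agents for 7 days; 100% = DMSO vehicle wells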
- test method notes: Anticancer human tumor LG0703-F948-PDC patient-derived lung adenocarcinoma cell line growth inhibition [RAS]
- measurement conditions: second compound 0.000949 µM; first compound 0.316 µM; stronger effect = lower value
test readout: viability, T/C (%)

compound: CCC(CC)c1cc(NC2CCC(N)C2)n2nccc2n1 (centres undefined) + CCn1c(-c2cc(N3CCN(C)CC3)cnc2C(C)OC)c2c3cc(ccc31)-c1csc(n1)CC(NC(=O)C1CC1C)C(=O)N1CCCC(N1)C(=O)OCC(C)(C)C2
test readout: viability, T/C
result number: 55.2
--
compound: CC1(O)CCCC1n1c(=O)c(C(F)F)cc2cnc(NC3CCN(S(C)(=O)=O)CC3)nc21 (centres undefined) + CCn1c(-c2cccnc2C(C)OC)c2c3cc(ccc31)N1CCOC(CC(NC(=O)C(C(C)C)N(C)C(=O)C3(F)CCN(C(=O)C#CC(C)(C)N(C)C)CC3)C(=O)N3CCCC(N3)C(=O)OCC(C)(C)C2)C1
test readout: viability, T/C
result number: 97.3
--
compound: O=C(c1ccc(F)c(F)c1Nc1ccc(I)cc1F)N1CC(O)([C@@H]2CCCCN2)C1 + CCn1c(-c2cccnc2C(C)OC)c2c3cc(ccc31)N1CCOC(CC(NC(=O)C(C(C)C)N(C)C(=O)C3(F)CCN(C(=O)C#CC(C)(C)N(C)C)CC3)C(=O)N3CCCC(N3)C(=O)OCC(C)(C)C2)C1
test readout: viability, T/C
result number: 33.4
--
compound: CCC(CC)c1cc(NC2CCC(N)C2)n2nccc2n1 (centres undefined) + CCn1c(-c2cccnc2C(C)OC)c2c3cc(ccc31)N1CCOC(CC(NC(=O)C(C(C)C)N(C)C(=O)C3(F)CCN(C(=O)C#CC(C)(C)N(C)C)CC3)C(=O)N3CCCC(N3)C(=O)OCC(C)(C)C2)C1
test readout: viability, T/C
result number: 79.8
